TEST_DETAILS: Metabolic stability in monkey liver microsomes assessed as half life measured upto 120 mins
Assay type: ADME, Microsome
CONDITION_NOTES: macaca
RESULT_TYPE: half-life (min)
Answer in min, number only, no unit symbol.

- STRUCTURE_SMILES_STRING: "Cc1nnn(C)c1-c1cnc2c3ccc(C(C)(C)O)cc3n([C@H](c3ccccc3)C3CCOCC3)c2c1"
  RESULT_TYPE: "half-life"
  TEST_VALUE: 11
- STRUCTURE_SMILES_STRING: "Cc1nnn(C)c1-c1ccc2c3ncc(C(C)(C)O)cc3n([C@H](c3ccccc3)C3CCOCC3)c2c1"
  RESULT_TYPE: "half-life"
  TEST_VALUE: 4

Req: half-life lookup needed for "[2H]C([2H])([2H])c1nnn(C)c1-c1cc2c(cc1F)c1ncc(C(C)(C)O)cc1n2[C@H](c1ccccc1)C1CCOCC1" , thanks.
Resp: 14
